The origin of these recorded values is patent US20030073654A1.

PROCEDURE SUMMARY: pH of aqueous solutions of the compounds
Assay type: physicochemical
RECORDED CONDITIONS: stock solutions prepared in culture media diluted with deionized water
Classes based on pH (H20): low interval: < 7; middle interval: ≥ 7 and < 8; high interval: ≥ 8

compound="CNCC(O)c1ccc(O)c(O)c1 (stereo not shown) [ADRENALINE]" assigned_class="high interval"
compound="O=C(O)CCCC(=O)O [GLUTARIC ACID]" assigned_class="low interval"
compound="NC(=O)NC(CC(=O)O)C(=O)O (racemic) [N-CARBAMYL-DL-ASPARTIC ACID]" assigned_class="low interval"
compound="O=C(O)CNC(=O)c1ccccc1 [HIPPURIC ACID]" assigned_class="low interval"
compound="O=C(O)[C@@H]1CCCN1 [PROLINE]" assigned_class="middle interval"

Exercise: Just checking, what class would you give CCC(N)C(=O)O (stereo not drawn) [α-AMINO-n-BUTYRIC ACID] here?
Key: middle interval

Exercise: Subsequent entry: N[C@@H](CCO)C(=O)O [HOMOSERINE]
Key: middle interval

Exercise: Param item: CCOC(=O)CCCC(C)=O [ETHYL 4-ACETYLBUTYRATE]
Key: low interval

Exercise: Likewise for N=C(N)NCCC[C@H](N)C(=O)O [L-ARGININE] ?
Key: high interval

Exercise: Thanks! And CSCC[C@H](N)C(=O)O [METHIONINE] ?
Key: middle interval

Exercise: Another: N[C@@H](Cc1cc(I)c(O)c(I)c1)C(=O)O [DIIODOTYROSINE]
Key: middle interval

Exercise: Same lookup for NCCCC[C@H](N)C(=O)O [L-LYSINE] , please.
Key: high interval

Exercise: Can you check O=C(O)c1ccccc1 [BENZOIC ACID] next?
Key: low interval

Exercise: Record: CSCC[C@H](NC=O)C(=O)O [N-FORMYL-L-METHIONINE]
Key: low interval

Exercise: Next compound: N[C@@H](CC(=O)O)C(=O)O [ASPARTIC ACID]
Key: low interval

Exercise: Item: "CCOC(=O)CC[C@H](NCc1ccc(N)cc1)C(=O)OCC"
Key: low interval

Exercise: Would you kindly repeat that for Nc1cccc(S(=O)(=O)O)c1 [3-AMINO BENZENE SULFONIC ACID] ?
Key: low interval

Exercise: Could you do the same for NC(=O)NCCC[C@H](N)C(=O)O [CITRULLINE] , please?
Key: middle interval

Exercise: And then O=S(=O)(O)CCN(CCO)CCO [BES] , what is it?
Key: low interval

Exercise: Same lookup for N[C@@H](Cc1c[nH]cn1)C(=O)O [HISTIDINE] , please.
Key: low interval

Exercise: Follow-up item: CN(CC(=O)O)C(=N)N [CREATINE]
Key: middle interval

Exercise: Another compound: CCOC(=O)c1ccc(C(C)=O)cc1 [ETHYL 4-ACETYLBENZOATE]
Key: middle interval

Exercise: Then CCCCCCCCc1ccc(C(=O)O)cc1 [4-OCTYL BENZOIC ACID] ?
Key: middle interval

Exercise: Another compound: CCc1ccc(C(=O)O)cc1 [4-ETHYLBENZOIC ACID]
Key: low interval

Exercise: Would you kindly repeat that for N[C@@H](CS)C(=O)O [CYSTEINE] ?
Key: middle interval
